Molecular target: T1, His-tagged P3028 (human, not fully specified)
T1 construct: the tag is put first after 'PGE73=His-tag-P3028'; also called PGE73; not shown: His-tag
T1 peptide: {His‑tag}-VFDEFKPLVEEPQNLIK
Assay: chip ELISA
No end group written: not given here.
Threshold 300: ELISA signal strictly smaller gives 1.0, otherwise 0.0.

| binder | discrete-label |
| --- | --- |
| KKLDTFQVKLSLFTER [P28R F7Q] | 0.0 |
| KKLDQFFVKLSLFTER [P28R T5Q] | 0.0 |
| WKLDTFFVKLSLFTER [P28R K1W] | 1.0 |
| KKLDTFRVKLSLFTER [P28R F7R] | 0.0 |
| KKLDTFFVKLSLHTER [P28R F13H] | 0.0 |
| KKLDTWFVKLSLFTER [P28R F6W] | 0.0 |
| KKLDTFFVKLSLFKER [P28R T14K] | 1.0 |
| KKLDTFFVKKSLFTER [P28R L10K] | 1.0 |
| KKLDTFFVKLSLFIER [P28R T14I] | 0.0 |
| HKLDTFFVKLSLFTER [P28R K1H] | 0.0 |
| KKLDTFFVKLTLFTER [P28R S11T] | 0.0 |
| KKLDTFFVKLSLFTTR [P28R E15T] | 1.0 |
| KKLDTFFVKLDLFTER [P28R S11D] | 0.0 |
| KKLDTFFVKLSLFEER [P28R T14E] | 1.0 |
| KMLDTFFVKLSLFTER [P28R K2M] | 0.0 |
| KKSDTFFVKLSLFTER [P28R L3S] | 0.0 |
| VKLDTFFVKLSLFTER [P28R K1V] | 0.0 |
| KKLDTFFVKLSLFTIR [P28R E15I] | 1.0 |
| KKLDTFFVLLSLFTER [P28R K9L] | 1.0 |
| KKLDTFFVQLSLFTER [P28R K9Q] | 0.0 |
| KKLSTFFVKLSLFTER [P28R D4S] | 0.0 |
